src = patent US20150141381A1

# Test system: E. coli mL308 225
# Procedure Details: In Vitro Anti-Bacterial Activity Assay (MIC), gram negative
# Type: cell-based
# Assay Conditions: Escherichia coli, ML308225, 18 h, gram negative bacteria; read-out: Antibiotic Activity Gram − (MIC)
As shown below, each of these compounds has a reported MIC value.

# Mol, Assay System, MIC
data = [
    ("CCNCC(=O)NCc1cc(N(C)C)c2c(c1O)C(=O)C1=C(O)[C@]3(O)C(=O)C(C(N)=O)=C(O)[C@@H](N(C)C)[C@@H]3C[C@@H]1C2", "E. coli mL308 225", "> 4 µg/mL"),
    ("CN(C)[C@@H]1C(O)=C(C(N)=O)C(=O)[C@@]2(O)C(O)=C3C(=O)c4c(O)ccc(-c5ccc(O)nc5)c4C[C@H]3C[C@@H]12", "E. coli mL308 225", "< 4 µg/mL"),
    ("CC(C)Cc1cc(N(C)C)c2c(c1O)C(=O)C1=C(O)[C@]3(O)C(=O)C(C(N)=O)=C(O)[C@@H](N(C)C)[C@@H]3C[C@@H]1C2", "E. coli mL308 225", "< 4 µg/mL"),
    ("O=c1cc(-c2ccc(F)cc2)oc2ccccc12", "E. coli mL308 225", "< 4 µg/mL"),
    ("CN(C)[C@@H]1C(O)=C(C(N)=O)C(=O)[C@@]2(O)C(O)=C3C(=O)c4c(O)ccc(C(=O)O)c4C[C@H]3C[C@@H]12", "E. coli mL308 225", "> 4 µg/mL"),
    ("CN1CCC(NCc2ccc3c(c2O)C(=O)C2=C(O)[C@]4(O)C(=O)C(C(N)=O)=C(O)[C@@H](N(C)C)[C@@H]4C[C@@H]2C3)CC1", "E. coli mL308 225", "> 4 µg/mL"),
    ("CN(Cc1cc(N(C)C)c2c(c1O)C(=O)C1=C(O)[C@]3(O)C(=O)C(C(N)=O)=C(O)[C@@H](N(C)C)[C@@H]3C[C@@H]1C2)CC(C)(C)C", "E. coli mL308 225", "< 4 µg/mL"),
]
